Taken from patent US20190233498A1.

Recorded IC50, 1 nM PACAP38-induced human VPAC2-R mediated cAMP increase, one value per entry.
targetSystem: T1, human PACAP38 (human, not fully specified; C-terminal lysine is amidated; N-terminal or C-terminal biotin in the HTRF and PC-12 cell binding assays)
T1 peptide: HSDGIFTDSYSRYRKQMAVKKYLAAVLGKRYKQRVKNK
experiment: cell-based or functional assay
Only the number, expressed in pM, is required.

Consider the following illustrative entries.
{"binder": "anti-PACAP antibody Ab7 (antibody, human IgG1, kappa, N297A, V domains shown, full-length rabbit/human chimeric antibody) VH: QSVEESGGRLVTPGTPLTLTCTASGIDLSGYAMGWVRQAPGKGLEWIGDISTYGTTDYASWVNGRFTISRTSTTVTLKMTSLTTEDTATYFCARDYWLSLWGPGTLVTVSS VL: AAVLTQTPSPVSAAVGGTVTIKCQSSQSVYDNNALAWYQQKPGQPPKLLIYAASTLASGVPSRFKGSGSGTQFTLTINGVQCDDAATYYCLGGYDDPADNAFGGGTEVVVKR", "measValue": 162}
{"binder": "anti-PACAP antibody Ab2 (antibody, human IgG1, kappa, N297A, V domains shown, full-length rabbit/human chimeric antibody) VH: QSVEESGGRLVTPGTPLTLTCTVSGFSLSGAAMNWVRQAPGKGLEWIGVIGNSGSTYYASWAKGRFTISKTSSTTVDLKMTSPTTEDTATYFCARGGGEFFIWGQGTLVTVSS VL: AQVLTQTPSPVSAAVGGTVTINCQSSESVYKNNYLSWYQQKPGQPPKFLIYQASNLADGVPSRFKGSGSGTQFTLTISDLECDDAATYYCAGGYSTYMSGFGGGTEVVVKR", "measValue": 174}

Query string: Give the measured IC50, 1 nM PACAP38-induced human VPAC2-R mediated cAMP increase of anti-PACAP antibody Ab23 (antibody, human IgG1, kappa, N297A, V domains shown, full-length rabbit/human chimeric antibody; PACAP38 specific) VH: QSVEESGGRLVTPGTPLTLTCTVSGFSLNNYAMSWVRQAPGKGLEWIGIMGVNDITYYASWAKGRFTISKTSTTVDLKMTSLTTEDTATYFCTREIRDDGDSSDKLWGPGTLVTVSS VL: AIKMTQTPSSVSAAVGGTVTINCQASEDIYTNLAWYQQKPGQPPNLLIYDASDLASGVPSRFSGSGDGTQFTLTISAVQCEDAATYYCQGVAWSSNTGYGSAFGGGTEVVVKR .
Result string: 1790
